- tested.target: RARγ (Homo sapiens, UniProt P13631)
- Sequence (P13631 whole entry, looked up): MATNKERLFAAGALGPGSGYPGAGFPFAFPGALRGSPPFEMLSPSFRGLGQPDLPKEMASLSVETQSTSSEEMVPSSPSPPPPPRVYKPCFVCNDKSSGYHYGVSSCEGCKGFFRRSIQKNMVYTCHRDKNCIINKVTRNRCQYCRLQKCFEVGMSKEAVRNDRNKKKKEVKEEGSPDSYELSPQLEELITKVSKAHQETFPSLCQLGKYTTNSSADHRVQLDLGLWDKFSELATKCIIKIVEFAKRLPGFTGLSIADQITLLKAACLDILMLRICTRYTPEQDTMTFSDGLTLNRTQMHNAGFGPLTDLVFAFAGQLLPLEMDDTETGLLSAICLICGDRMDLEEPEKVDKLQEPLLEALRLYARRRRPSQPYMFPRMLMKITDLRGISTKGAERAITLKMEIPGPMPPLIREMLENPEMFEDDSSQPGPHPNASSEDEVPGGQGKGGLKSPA
pKi: −log10 of the molar value.
experimental.endpoint: pKi

INPUT: What measured pKi is associated with CC1=C(/C=C/C(C)=C/C=C/C(C)=C/C(=O)Nc2ccc(O)cc2)C(C)(C)CCC1 [FENRETINIDE] on RARγ (Homo sapiens, UniProt P13631)?
OUTPUT: < 5.22

----------
Here's a batch of compounds along with measured Ki for RARα (Homo sapiens, UniProt P10276).

CC1=C(/C=C/C(C)=C/C=C/C(C)=C/C(=O)Nc2ccc(O)cc2)C(C)(C)CCC1 [FENRETINIDE]    > 2200 nM

Query compound follows.
INPUT: What measured Ki is associated with CC1=C(/C=C/C(C)=C/C=C/C(C)=C/C(=O)Nc2ccc(O[C@@H]3O[C@@H](C(=O)O)[C@@H](O)[C@H](O)[C@@H]3O)cc2)C(C)(C)CCC1 on RARα (Homo sapiens, UniProt P10276)?
OUTPUT: > 2200 nM

----------
- tested.target: RARβ (Homo sapiens, UniProt P10826)
- Sequence (P10826 whole entry, looked up): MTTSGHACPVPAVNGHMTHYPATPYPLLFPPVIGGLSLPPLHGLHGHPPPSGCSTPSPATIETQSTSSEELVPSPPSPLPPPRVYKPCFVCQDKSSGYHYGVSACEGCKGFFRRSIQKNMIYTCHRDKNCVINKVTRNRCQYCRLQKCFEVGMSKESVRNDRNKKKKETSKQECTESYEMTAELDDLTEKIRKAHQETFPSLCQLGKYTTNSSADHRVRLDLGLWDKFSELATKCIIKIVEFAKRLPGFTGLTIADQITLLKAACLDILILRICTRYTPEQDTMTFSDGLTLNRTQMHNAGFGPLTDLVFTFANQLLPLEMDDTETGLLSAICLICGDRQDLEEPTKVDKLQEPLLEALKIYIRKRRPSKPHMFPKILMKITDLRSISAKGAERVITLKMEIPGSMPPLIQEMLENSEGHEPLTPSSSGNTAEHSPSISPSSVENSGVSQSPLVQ
experimental.endpoint: Ki

INPUT: What measured Ki is associated with CC1=C(/C=C/C(C)=C/C=C/C(C)=C/C(=O)Nc2ccc(O)cc2)C(C)(C)CCC1 [FENRETINIDE] on RARβ (Homo sapiens, UniProt P10826)?
OUTPUT: > 2800 nM
